- Test system: XIP peptide (Xip251-270) binding
- EXPERIMENTAL_PROTOCOL: small-molecule binders of XIP peptide, primary screen, biochemical, small-molecule microarray, fluorescence 635/667 nm, 0.1 µg/mL protein (AID 1182)
- CONDITION_SUMMARY: fluorescent protein binding, 635 nm, higher = more signal, called active from +8 up or from −8 down
# reported composite z-score; entries follow
Lab note: jot the number down without any unit.

Past entries and their recorded results:
// fetch composite z-score given entry CC(C)(C)OC(=O)CC[C@]1(C(=O)N2CCOCC2)N=C(c2ccc(OCCCO)cc2)O[C@H]1c1ccccc1CN=[N+]=[N-]
0.518

// fetch composite z-score given entry O=C1O[C@@H](c2ccccc2)[C@@H](c2ccccc2)N2[C@@H](c3ccc(OCCO)cc3)[C@]3(C(=O)Nc4ccc(C#CCCO)cc43)[C@@H](C(=O)Nc3nc4ccccc4s3)[C@H]12
0.469

Further cases:
// fetch composite z-score given entry C[C@H]1C2[C@H](Cc3ccccc3)NC(=O)[C@]23C(=O)NCC(=O)N2CCC[C@H]2C(=O)NC/C=C\C/C=C/C3[C@@H]2O[C@]12C (stereo not given in full)
0.358

// fetch composite z-score given entry C=CCC(OC(C)=O)[C@@H]1[C@@H](N(Cc2ccc(-c3ccccc3)cc2)C(=O)c2ccc(C)cc2)c2cc(OCCCO)ccc2N1C(=O)c1ccc2ccccc2c1 (stereo not given in full)
-0.654

// fetch composite z-score given entry COCCOC(=O)N1C(=O)[C@@]2(c3cc(C#CC4(O)CCCCCC4)ccc31)[C@H](c1ccc(OCCO)cc1)N1[C@H](c3ccccc3)[C@H](c3ccccc3)OC(=O)[C@H]1[C@@H]2C(N)=O
0.539

// fetch composite z-score given entry COC(=O)[C@@]1(Cc2ccccc2)[C@H]2c3cc(C(=O)N4CCCC4)n(Cc4ccc(C(F)(F)F)nc4)c3C[C@H]2CN1C(=O)c1ccccc1
-0.0699

// fetch composite z-score given entry CCCC[C@@H](O)C1=C(COC)Cn2c(=O)n(-c3ccccc3)c(=O)n2[C@H]1CO
-0.698

// fetch composite z-score given entry O=C1OCCC=C[C@H]2OC34C=CCN(CCN5CCOCC5)C(=O)[C@H]3N(CCCO)C(=O)[C@@H]4C12 (stereo not given in full)
0.186

// fetch composite z-score given entry O=c1cccc(-c2ccccc2C(F)(F)F)o1
-0.808
